log10(EC50) for assorted compounds
- System: Tau phosphorylation at Ser396 (pSer396)
- EXPERIMENT_SUMMARY: Tau phosphorylation assay (pSer396 ELISA / western blot) in SH-SY5Y cells;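 further: EC50 for reduction of Tau pSer396 in lysed cells, measured by colorimetric ELISA or chemiluminescent western blot, both using the same pSer396 antibody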
- Format: cell-based, human
- CONDITION_DETAILS: Homo sapiens; SH-SY5Y cells, overnight (16-18 h) exposure; read-out: pSer396 Tau EC50
OUTCOME_MEASURE: log10(EC50) (log10 of the value in nM)

In [3]: df
Out[3]:
                                    compound  recorded_value
 0    O=C(CN1CCCC1)Nc1cc2cc(-c3cnco3)ccc2cn1            3.04
 1  Cc1nnc(-c2ccc3cnc(NC(=O)C4CCN(CC(C)C)CC4)cc3c2)o1            1.69
 2  Cn1cc(-c2ccc3cnc(NC(=O)C4CCN(S(=O)(=O)c5ccccc5)CC4)cc3c2)cn1            2.76
 3  COC(=O)CN1CCC(C(=O)Nc2cc3cc(-c4cnn(C)c4)ccc3cn2)CC1            2.91
 4  CCN1CCN(CC(=O)Nc2cc3cc(-c4cnn(C)c4)ccc3cn2)CC1            2.93
 5  CN1CCC(N2CCC(C(=O)Nc3cc4cc(-c5cnco5)ccc4cn3)CC2)CC1            2.44
 6  Cc1nnc(-c2ccc3cnc(NC(=O)CN4CCOC[C@H]4C)cc3c2)s1            2.60
 7  O=C(Nc1cc2cc(-c3cncs3)ccc2cn1)C1(F)CCCCC1            4.00
 8  [2H]C([2H])([2H])n1cc(-c2ccc3cnc(NC(=O)C4CCN(CCC(F)(F)F)CC4)cc3c2)cn1            2.32
 9  CC(=O)N1CCC(C(=O)Nc2cc3cc(-c4cnn(C)c4)ccc3cn2)CC1            2.72
10  Cn1nncc1-c1ccc2cnc(NC(=O)C3CCN(CCC(F)(F)F)CC3)cc2c1            2.96
11  Cc1nnc(-c2ccc3cnc(NC(=O)C4(F)CCN(CC(C)C)CC4)cc3c2)o1            3.09
12  [2H]C([2H])([2H])n1cc(-c2cc3cc(NC(=O)CN4CCCCC4)ncc3cc2F)cn1            2.72
13  CNc1ncc(-c2ccc3cnc(NC(=O)C4CCN(C)CC4)cc3c2)s1            3.11
14  Cn1cc(-c2ccc3cnc(NC(=O)C4CCN(CC5(C(F)(F)F)CC5)CC4)cc3c2)cn1            2.80
15  Cn1cc(-c2ccc3cnc(NC(=O)[C@@H]4CCCNC4)cc3c2)cn1            2.78
16  Cn1cc(-c2ccc3cnc(NC(=O)C4CCN(CC(=O)OC(C)(C)C)CC4)cc3c2)cn1            2.79
17  Cn1cc(-c2ccc3cnc(NC(=O)C4CC5(C4)CN(CCF)C5)cc3c2)cn1            2.76
18  CN1CCC(N2CCC(C(=O)Nc3cc4cc(-c5cnn(C)c5)ccc4cn3)CC2)CC1            2.49
19  Cn1cc(-c2ccc3cnc(NC(=O)C4CCN(CCF)CC4)cc3c2)cn1            2.66
20  O=C(Nc1cc2cc(-c3cnn4c3CN(CCF)CC4)ccc2cn1)C1CCNCC1            3.98
21  Cn1cc(-c2ccc3cnc(NC(=O)[C@H]4CC[C@H](N(C)C)CC4)cc3c2)cn1            2.61
22  CN1CCOC(CC(=O)Nc2cc3cc(-c4cnn(C)c4)ccc3cn2)C1 (centres unmarked)            2.62
23  CC(C)CN1CCC[C@@H](C(=O)Nc2cc3cc(-c4cnn(C)c4)ccc3cn2)C1            3.58
24  CN1CCC(C(=O)Nc2cc3cc(-c4cnn(C)c4)ccc3cn2)CC1            2.30
25  Cn1cc(-c2ccc3cnc(NC(=O)C4CCN(CCC(F)(F)F)CC4)cc3c2)nn1            2.09
26  Cc1ncc(-c2ccc3cnc(NC(=O)C4CC(F)(F)C4)cc3c2)n1C            2.68
27   O=C(CN1CCOCC1)Nc1cc2cc(-c3cncs3)ccc2cn1            3.34
